- Tested on: Escherichia coli
- assay.summary: Inhibition of cleavage activity of Escherichia coli DNA gyrase using relaxed pBR322 as substrate at 200 uM after 10 mins by agarose gel electrophoresis analysis relative to control
measured.quantity: fold change (FC)
Write the value as a bare number.

Reported fold change (FC), compound O=C(CCCCCC(=O)Oc1c(-c2ccc(O)c(O)c2)oc2cc(O)cc(O)c2c1=O)NCC(=O)Nc1ccc(O)c(CO)c1 : ____ 1.9

Same question, O=C(O)Cc1ccc(NC(=O)CNC(=O)CCCCCC(=O)Oc2c(-c3ccc(O)c(O)c3)oc3cc(O)cc(O)c3c2=O)cc1 this time 1.8
